These data points were gathered from the supplement of paper PMC12420376.

Kindly state drug sensitivity score for each of the entries shown.
# Test system: OVCAR8
# experiment_summary: drug sensitivity score (DSS2) on cancer cell count; higher = more sensitive; extreme values may be limits of the assay
# assay_context: co-cultured fibroblast: BJHTERT; 72 h
Kindly provide the numeric value in DSS only, without the unit symbol.

Using the record for C=C1C[C@@H]2[C@H](CC[C@]3(C)C(=O)CC[C@@H]23)[C@@]2(C)C=CC(=O)C=C12 [Exemestane] , report its drug sensitivity score.
1.3

Try Cc1ccc(NC(=O)c2ccc(CN3CC[C@H](N(C)C)C3)c(C(F)(F)F)c2)cc1Nc1nccc(-c2cncnc2)n1 [Bafetinib] next.
0

Try O=c1[nH]c(=O)n([C@H]2C[C@H](O)[C@@H](CO)O2)cc1C(F)(F)F [Trifluridine] next.
5.2

Try CNC(=O)c1cccc2cc(Oc3ccnc4cc(OCC5(N)CC5)c(OC)cc34)ccc12 [Lucitanib] next.
3.3

Try Cc1cccc(-c2[nH]c(CNc3ccccc3F)nc2-c2ccc3ncnn3c2)n1 [TEW-7197] next.
11.2

Try COc1cc2ncnc(Nc3ccc(F)c(Cl)c3)c2cc1NC(=O)/C=C/CN1CCCCC1 [Dacomitinib] next.
5.5

Try CCNC(=O)C[C@@H]1N=C(c2ccc(Cl)cc2)c2cc(OC)ccc2-n2c(C)nnc21 [Molibresib] next.
12.2

Try COc1cc2ncnc(Nc3cccc(Cl)c3F)c2cc1OC(=O)N1CCN(C)C[C@H]1C [AZD3759] next.
0.8

Try Nc1cccc2c1CN(C1CCC(=O)NC1=O)C2=O (stereo unspecified) [Lenalidomide] next.
0

Try CC(C)(C)NC(=O)[C@H]1CC[C@H]2[C@@H]3CC[C@H]4NC(=O)C=C[C@]4(C)[C@H]3CC[C@]12C [Finasteride] next.
2.1

Try CC[C@@]1(O)C(=O)OCc2c1cc1n(c2=O)Cc2cc3c(CN(C)C)c(O)ccc3nc2-1 [Topotecan] next.
22.2

Try O=C(Nc1cnn2ccc(N3CCC[C@@H]3c3cc(F)ccc3F)nc12)N1CC[C@H](O)C1 [Larotrectinib] next.
0.2

Try C/C=C1\NC(=O)[C@H]2CSSCC/C=C/[C@H](CC(=O)N[C@H](C(C)C)C(=O)N2)OC(=O)[C@H](C(C)C)NC1=O [Romidepsin] next.
29.2

Try COc1cc2c(cc1-c1c(C)noc1C)ncc1[nH]c(=O)n([C@H](C)c3ccccn3)c12 [I-BET151] next.
14.1

Try CN(CC(=O)N(Cc1ccc(C2CCCCC2)cc1)c1ccc(C(=O)O)cc1)S(=O)(=O)c1c(F)c(F)c(F)c(F)c1F [SH-4-54] next.
0

Try COc1cc2c(cc1OC(C)C)[C@H](c1ccc(Cl)cc1)N(c1ccc(N(C)C[C@H]3CC[C@H](N4CCN(C)C(=O)C4)CC3)cc1)C(=O)C2 [NVP-CGM097] next.
10.1

Try CCN(CC)CCN(Cc1ccc(-c2ccc(C(F)(F)F)cc2)cc1)C(=O)Cn1c(SCc2ccc(F)cc2)nc(=O)c2c1CCC2 [Darapladib] next.
0

Try CC(=O)c1c(C)c2cnc(Nc3ccc(N4CCNCC4)cn3)nc2n(C2CCCC2)c1=O [Palbociclib] next.
6.6

Try COCCOc1cnc2ccn([C@H](C)c3nnc4c(F)cc(-c5cnn(C)c5)cn34)c(=O)c2c1 [AMG-337] next.
0

Try CN[C@@H](C)C(=O)N[C@H](C(=O)N1CCC[C@H]1c1nc(C(=O)c2ccc(F)cc2)cs1)C1CCCCC1 [NVP-LCL161] next.
34.7

Try Oc1nc(-c2ccc(C(F)(F)F)cc2)nc2c1CSCC2 [XAV-939] next.
0.6

Try CCN1C(=O)CNc2ncc(-c3ccc(-c4nc[nH]n4)nc3C)nc21 [CC-115] next.
20.1

Try `CC[C@@H]1[C@H](F)C(=O)N[C@@H]1COc1nccc2cc(C(N)=O)c(OC)cc12` next.
2.4

Try COc1cc(N2CCC(N3CCN(C)CC3)CC2)ccc1Nc1ncc(Cl)c(Nc2ccccc2P(C)(C)=O)n1 [Brigatinib] next.
4.3

Try CNc1nc(Nc2cn(C(C)(C)C#N)nc2C)ncc1C(F)(F)F [GNE-0877] next.
0

Try `COc1ccc2[nH]cc(/C=C3\C(=O)Nc4ccc(NC(=O)CCN5CCCCC5)cc43)c2c1` next.
4

Try COC(=O)c1ccc([C@H]2c3[nH]c4ccccc4c3C[C@H](C(=O)OC)N2C(=O)CCl)cc1 [RSL3] next.
0

Try CN1C(=O)N[C@H](Cc2c[nH]c3c(Cl)cccc23)C1=O [Necrostatin 2] next.
0

Try CC(C)C(=O)Nc1ccc([N+](=O)[O-])c(C(F)(F)F)c1 [Flutamide] next.
0

Try CN(C)C(=O)c1ccc(S(=O)(=O)c2ccc(NC(=O)[C@@](C)(O)C(F)(F)F)c(Cl)c2)cc1 [AZD7545] next.
3.4

Try `Cc1c(-c2ccc(N3CCc4cccc(C(=O)Nc5nc6ccccc6s5)c4C3)nc2C(=O)O)cnn1CC12CC3CC(CC(C3)C1)C2` next.
1.6

---

Kindly state drug sensitivity score for each of the entries shown.
# Test system: KURAMOCHI
# experiment_summary: drug sensitivity score (DSS2) on cancer cell count; higher = more sensitive; extreme values may be limits of the assay
# assay_context: co-cultured fibroblast: WI38; 72 h
Kindly provide the numeric value in DSS only, without the unit symbol.

Using the record for CN1CCN(CCOc2cc(OC3CCOCC3)c3c(Nc4c(Cl)ccc5c4OCO5)ncnc3c2)CC1 [Saracatinib] , report its drug sensitivity score.
9.6

Try CCC(C)(C)C(=O)O[C@H]1C[C@@H](C)C=C2C=C[C@H](C)[C@H](CC[C@@H]3C[C@@H](O)CC(=O)O3)[C@H]21 [Simvastatin] next.
0

Try CNC(=O)c1ccc2cc([C@@]3(O)CCn4cncc43)ccc2c1 [Orteronel] next.
0

Try O=C(Nc1cccnc1)N1CCC(Cc2cccc(Oc3ccc(C(F)(F)F)cn3)c2)CC1 [PF-3845] next.
0

Try O=C(/C=C\n1cnc(-c2cc(C(F)(F)F)cc(C(F)(F)F)c2)n1)NNc1ccccn1 [Verdinexor] next.
9.1

Try CS(=O)(=O)c1ccc(C(=O)Nc2ccc(Cl)c(-c3ccccn3)c2)c(Cl)c1 [Vismodegib] next.
0

Try N#Cc1ccnc(N2C(=O)CC[C@H]2C(=O)N(c2cncc(F)c2)[C@H](C(=O)NC2CC(F)(F)C2)c2ccccc2Cl)c1 [Ivosidenib] next.
0

Try O=C(CCCCCCC(=O)Nc1ccc([C@H]2O[C@@H](CSc3nc(-c4ccccc4)c(-c4ccccc4)o3)C[C@@H](c3ccc(CO)cc3)O2)cc1)NO [Tubacin] next.
6.7

Try CN(C)C(=N)NC(=N)N [Metformin] next.
0

Try `Cc1nc(Nc2n[nH]c3c2CN(C(=O)N[C@H](CN(C)C)c2ccccc2)C3(C)C)c2sccc2n1` next.
24.6

Try C=C(c1ccc(C(=O)O)cc1)c1cc2c(cc1C)C(C)(C)CCC2(C)C [Bexarotene] next.
0

Try C[C@@H]1COC(Nc2ccc3ncnc(Nc4ccc(OCc5nccs5)c(Cl)c4)c3c2)=N1 [Varlitinib] next.
2.1

Try CS(=O)(=O)N1CCN(Cc2cc3nc(-c4cccc5[nH]ncc45)nc(N4CCOCC4)c3s2)CC1 [Pictilisib] next.
12.1

Try COc1cc(N2CCN(C)CC2)ccc1Nc1nccc(-c2cn(C)c3cnccc23)n1 [AZ191] next.
2.3

Try `Cc1ncc(Cl)cc1NCc1ccc(C(=O)N[C@@H](CC2CCCC2)C(=O)NC2CC2)s1` next.
0

Try `CCn1c(-c2nonc2N)nc2c(C#CC(C)(C)O)ncc(OC[C@H]3CCCNC3)c21` next.
6.1

Try COc1cccc(OCCCN)c1-c1cc(Nc2cnc(C#N)cn2)n[nH]1 [Prexasertib] next.
23.7

Try C[C@@H](Oc1cc(-c2cnn(C3CCNCC3)c2)cnc1N)c1c(Cl)ccc(F)c1Cl [Crizotinib] next.
0

Try CC1CCC(n2c3cnccc3c3cnc(Nc4ccc5c(n4)CCN(C(=O)CO)C5)nc32)CC1 (configuration not stated) [AMG-925] next.
2.2

Try COc1cccc(-c2ccc(NC(=O)C3=C(C(=O)O)CCC3)c(F)c2)c1 [Vidofludimus] next.
0.4

Try CCc1cc2c(cc1N1CCC(N3CCOCC3)CC1)C(C)(C)c1[nH]c3cc(C#N)ccc3c1C2=O [Alectinib] next.
0

Try CN(C)C(=O)c1ccc(S(=O)(=O)c2ccc(NC(=O)[C@@](C)(O)C(F)(F)F)c(Cl)c2)cc1 [AZD7545] next.
0

Try Nc1cc(C(F)(F)F)c(-c2cc(N3CCOCC3)nc(N3CCOCC3)n2)cn1 [Buparlisib] next.
8

Try CC/C(=C(\c1ccccc1)c1ccc(OCCN(C)C)cc1)c1ccccc1 [Tamoxifen] next.
1.3

Try `C[C@H]1C[C@@H](n2c(Nc3ccc(OC(F)(F)F)cc3)nc3cc(CCC(=O)O)ccc32)CC(C)(C)C1` next.
0

Try Oc1nc(-c2ccc(C(F)(F)F)cc2)nc2c1CSCC2 [XAV-939] next.
0

Try CC[C@H](C)C(=O)O[C@H]1C[C@@H](C)C=C2C=C[C@H](C)[C@H](CC[C@@H]3C[C@@H](O)CC(=O)O3)[C@H]21 [Lovastatin] next.
3.4

Try COc1cccc2c1C(=O)c1c(O)c3c(c(O)c1C2=O)C[C@@](O)(/C(CO)=N/NC(=O)CCCCCN1C(=O)C=CC1=O)C[C@@H]3O[C@H]1C[C@H](N)[C@H](O)[C@H](C)O1 [Aldoxorubicin] next.
13.8

Try CCN1CCN(c2ccc(Nc3cc(N(C)C(=O)Nc4c(Cl)c(OC)cc(OC)c4Cl)ncn3)cc2)CC1 [Infigratinib] next.
0

Try O=C(c1ccc(OCCN2CCCCC2)cc1)c1c(-c2ccc(O)cc2)sc2cc(O)ccc12 [Raloxifene] next.
0

Try CN(C)c1cc2c(cc1Sc1nc3c(N)nccc3n1CCNCC(C)(C)C)OCO2 [CUDC-305] next.
14.9

Try CC(C)c1cc(C(=O)N2Cc3ccc(CN4CCN(C)CC4)cc3C2)c(O)cc1O [Onalespib] next.
14.6
